I'd be grateful if you could share measured IC50 for these entries.
- System: Wnt reporter (TCF/LEF1 promoter)
- Protocol Details: HEK STF293 Wnt reporter (TOPFlash) luciferase assay, Steady Glo normalised to Cell Titer
- Format: cell-based, human
- Applied Conditions: Homo sapiens, STF/293; Examples for Formulae (VIII), (IX), and (X); HEK STF293 cells, Wnt3a-conditioned media; read-out: TOPFlash IC50 category

Form field IC50, entry O=C(Nc1nc(-c2ccccn2)cs1)c1ccn(Cc2ccc(C(F)(F)F)cc2)c(=O)c1 : 500 to 1000 nM

Form field IC50, entry Cc1cc(C(=O)Nc2nc(-c3ncccc3C)co2)n(-c2ccc(S(C)(=O)=O)cc2)n1 : < 200 nM

Form field IC50, entry O=C(Nc1nc(-c2ccccn2)cs1)c1ccc(=O)n(Cc2ccc(C(F)(F)F)cc2)c1 : 200 to 500 nM

Form field IC50, entry O=C(Nc1nc(-c2ccccn2)cs1)c1ccc(=O)n(Cc2ccccc2Cl)c1 : 200 to 500 nM

Hey, just so you know, these numbers are from patent US20250257061A1.
